Target: β-catenin (Homo sapiens)
Construct: expression and purification of full-length β-catenin; His tag with TEV site (inferred from the pET28a-TEV vector name and Ni-NTA purification); host or cells: E. coli BL21(DE3)
Sequence (P35222 whole entry): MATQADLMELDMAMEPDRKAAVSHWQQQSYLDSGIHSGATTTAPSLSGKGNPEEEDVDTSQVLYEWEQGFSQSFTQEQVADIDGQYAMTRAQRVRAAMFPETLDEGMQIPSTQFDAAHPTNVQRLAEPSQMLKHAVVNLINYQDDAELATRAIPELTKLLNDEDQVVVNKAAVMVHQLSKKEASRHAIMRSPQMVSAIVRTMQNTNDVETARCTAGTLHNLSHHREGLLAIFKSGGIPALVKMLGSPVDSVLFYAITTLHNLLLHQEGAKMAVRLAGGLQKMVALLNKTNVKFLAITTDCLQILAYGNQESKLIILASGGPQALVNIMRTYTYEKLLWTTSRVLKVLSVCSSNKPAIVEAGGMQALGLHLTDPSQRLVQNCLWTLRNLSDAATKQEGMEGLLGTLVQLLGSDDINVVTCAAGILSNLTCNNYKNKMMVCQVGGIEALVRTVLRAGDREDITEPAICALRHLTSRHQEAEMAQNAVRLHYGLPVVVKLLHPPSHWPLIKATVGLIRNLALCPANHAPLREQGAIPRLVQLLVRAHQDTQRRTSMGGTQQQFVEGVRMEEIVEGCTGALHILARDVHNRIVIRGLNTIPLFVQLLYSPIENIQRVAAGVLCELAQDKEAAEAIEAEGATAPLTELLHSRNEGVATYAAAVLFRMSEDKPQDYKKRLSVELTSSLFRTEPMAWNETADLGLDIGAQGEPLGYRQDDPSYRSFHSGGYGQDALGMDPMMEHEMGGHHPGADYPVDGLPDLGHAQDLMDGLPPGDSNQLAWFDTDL
Assay: Competitive fluorescence polarisation assay
Assay type: binding
Details: unlabelled peptide titrated against tracer peptide fStAx-3 (10 nM final), β-catenin 3 µM final; FP buffer 1× PBS with 0.05% Tween20, pH 7.4; 4 °C, 1 h; biological duplicate and technical triplicate
measured_attribute: pKd
Answer as the number alone; pKd is minus log10 of concentration in mol/L.

What value of pKd has been reported for the following substance? Ac-ENPEWILDKHVQRVM-NH2 [P6]
5.91

Each recorded value in this set is attributed to paper PMC8744458.
